Test system: Ipomoea hederacea (IPOHE)
test_name: Post-emergence efficacy, Method A
Assay type: in vivo
condition_set: Ipomoea hederacea, post-emergence, 312 h, Application rate 500 g/Ha; evaluated after 13 days; 100=total damage to plant, 0=no damage to plant; read-out: Control of weed species after post-emergence application, IPOHE
Can you tell me pest or weed control at 500 g/ha for the items I'm about to list?
Include the unit right after the number.

Req: GET /values?readout=pest or weed control at 500 g/ha&item= CS(=O)(=O)c1cnc(-c2cc[n+](CCS(=O)(=O)[O-])nc2)nc1 [Compound A15]
Resp: 10%

Req: Consider the compound shown here: Cc1cc(F)cnc1-c1cc[n+](CCS(=O)(=O)[O-])nc1 [Compound A104] What is its recorded pest or weed control at 500 g/ha?
Resp: 30%

Req: So what's the measured pest or weed control at 500 g/ha for this one? CS(=O)(=O)NC(=O)CC[n+]1ccc(-c2ncccn2)cn1 [Compound A89]
Resp: 70%

Req: What value of pest or weed control at 500 g/ha has been reported for the following compound? CN(C)c1cnc(-c2cc[n+](CCS(=O)(=O)[O-])nc2)nc1 [Compound A18]
Resp: 10%

Req: Quick one: pest or weed control at 500 g/ha for CCOP(=O)(CC[n+]1ccc(-c2ncccn2)cn1)OCC [Compound A124] ?
Resp: 0%

---

Tested on: Digitaria sanguinalis (DIGSA)
test_name: Post-emergence efficacy, Method A
Type: in vivo
condition_set: Digitaria sanguinalis, post-emergence, 312 h; Application rate 500 g/Ha; evaluated after 13 days; 100=total damage to plant, 0=no damage to plant; read-out: Control of weed species after post-emergence application, DIGSA
pest or weed control at 500 g/ha vs 60%: less than gives MET; not less than gives NOT MET.

Req: Hi there! Is pest or weed control at 500 g/ha for CS(=O)(=O)NC(=O)CC[n+]1ccc(-c2ncccn2)cn1 below 60%, do you know?
Resp: MET

Req: Given the entry Cc1nc(-c2cc[n+](CCC(=O)[O-])nc2)ncc1Cl , would its reported pest or weed control at 500 g/ha be below 60%?
Resp: MET

Req: Is 60% strictly greater than the compound's reported pest or weed control at 500 g/ha? compound: CCOC(=O)CC[n+]1ccc(-c2ccccn2)cn1
Resp: MET

Req: Hi there! Is pest or weed control at 500 g/ha for CC(CC(=O)O)[n+]1ccc(-c2ncccn2)cn1 (stereo not drawn) [Compound A40, 2,2,2-trifluoroacetate] below 60%, do you know?
Resp: NOT MET

Req: In the record for Cc1cc(F)cnc1-c1cc[n+](CCC(=O)O)nc1 , is pest or weed control at 500 g/ha less than 60%?
Resp: MET

Req: Lab note: pest or weed control at 500 g/ha threshold 60%. Does this compound come in strictly under it? O=C(O)CC[n+]1ccc(-c2ncccc2Cl)cn1
Resp: MET

Req: Quick check: pest or weed control at 500 g/ha of O=C([O-])CC[n+]1ccc(-c2cccc(C(F)(F)F)n2)cn1 under 60%?
Resp: MET

Req: hey, is pest or weed control at 500 g/ha for O=S(=O)([O-])CC[n+]1ccc(-c2ncccc2F)cn1 lower than 60% or not?
Resp: MET

Req: Given CC(C)OC(=O)CC[n+]1ccc(-c2ncccn2)cn1 [Compound A81, 2,2,2-trifluoroacetate] , is recorded pest or weed control at 500 g/ha strictly lower than 60%?
Resp: NOT MET

Req: API: query returns whether the compound falls strictly under 60% in pest or weed control at 500 g/ha. Query: CC(=O)c1ccnc(-c2cc[n+](CCS(=O)(=O)[O-])nc2)n1
Resp: NOT MET

Req: Quick check: does CC(=O)c1cnc(-c2cc[n+](CCC(=O)[O-])nc2)nc1 have pest or weed control at 500 g/ha under 60%?
Resp: NOT MET

Req: Check if pest or weed control at 500 g/ha falls below 60% for Cc1nccc(-c2cc[n+](CCC(=O)O)nc2)n1 .
Resp: NOT MET

---

Tested on: Euphorbia heterophylla (EPHHL)
test_name: Post-emergence efficacy, Method A
Type: in vivo
condition_set: Euphorbia heterophylla, post-emergence, 312 h; Application rate 500 g/Ha; evaluated after 13 days; 100=total damage to plant, 0=no damage to plant; read-out: Control of weed species after post-emergence application, EPHHL
quantity_name: pest or weed control at 500 g/ha (%)
Use % as the unit, but write only the number.

Req: Fill in the recorded pest or weed control at 500 g/ha for this molecule, with Euphorbia heterophylla (EPHHL) as test system: Cc1cc(F)cnc1-c1cc[n+](CCS(=O)(=O)[O-])nc1 [Compound A104]
Resp: 20

Req: Item: O=S(=O)([O-])CCC[n+]1ccc(-c2cnc(Cl)cn2)cn1 [Compound A79] Test system: Euphorbia heterophylla (EPHHL) Read-out: pest or weed control at 500 g/ha Value: ?
Resp: 10

Req: Please provide the recorded pest or weed control at 500 g/ha for O=S(=O)([O-])CC[n+]1ccc(-c2ccc(F)cn2)cn1 [Compound A72] , tested on Euphorbia heterophylla (EPHHL).
Resp: 70

Req: Report pest or weed control at 500 g/ha for O=C([O-])CC[n+]1ccc(-c2ncc(C3CC3)cn2)cn1 [Compound A51] tested on Euphorbia heterophylla (EPHHL).
Resp: 30

Req: What pest or weed control at 500 g/ha appears in the records for this molecule with Euphorbia heterophylla (EPHHL)? O=C(O)CC[n+]1ccc(-c2ncccc2C(F)(F)F)cn1 [Compound A128]
Resp: 0

Req: What measured pest or weed control at 500 g/ha is associated with O=S(=O)([O-])CC[n+]1ccc(-c2ccncn2)cn1 [Compound A4] on Euphorbia heterophylla (EPHHL)?
Resp: 100

Req: Param readout= pest or weed control at 500 g/ha; system= Euphorbia heterophylla (EPHHL); entry= O=C(O)CC[n+]1ccc(-c2ccnc(O)n2)cn1 [Compound A86] ; returns value.
Resp: 50

Req: # get_value(readout= pest or weed control at 500 g/ha, system= Euphorbia heterophylla (EPHHL)) for Cc1ccnc(-c2cc[n+](CCS(=O)(=O)[O-])nc2)n1 [Compound A21]
Resp: 80

Req: Notebook entry, Euphorbia heterophylla (EPHHL) assay: pest or weed control at 500 g/ha of COc1ccnc(-c2cc[n+](CCS(=O)(=O)[O-])nc2)n1 [Compound A13] = ?
Resp: 70

---

System: Euphorbia heterophylla (EPHHL)
test_name: Post-emergence efficacy, Method A
Assay type: in vivo
condition_set: Euphorbia heterophylla, post-emergence, 312 h; Application rate 500 g/Ha; evaluated after 13 days; 100=total damage to plant, 0=no damage to plant; read-out: Control of weed species after post-emergence application, EPHHL
Record form. Attribute: pest or weed control at 500 g/ha. Fill in for each entry.
Reply numerically in %, unit not repeated.

Req: Find the measured pest or weed control at 500 g/ha: item O=S(=O)([O-])CC[n+]1ccc(-c2cc(C(F)(F)F)ncn2)cn1 , target or system Euphorbia heterophylla (EPHHL).
Resp: 60

Req: Recorded pest or weed control at 500 g/ha for CN(C)C(=O)c1cnc(-c2cc[n+](CCC(=O)[O-])nc2)nc1 with Euphorbia heterophylla (EPHHL), please?
Resp: 70

Req: API: value(readout=pest or weed control at 500 g/ha, system=Euphorbia heterophylla (EPHHL)) for record Cc1nc(-c2cc[n+](CCS(=O)(=O)[O-])nc2)ncc1Cl
Resp: 90

---

Test system: Lolium perenne (LOLPE)
test_name: Post-emergence efficacy, Method A
Type: in vivo
condition_set: Lolium perenne, post-emergence, 312 h, Application Rate 500 g/Ha; evaluated after 13 days; Method A; read-out: Control of weed species after post-emergence application, LOLPE (100=total damage to plant; 0=no damage to plant)
Decision: pest or weed control at 500 g/ha compared against 30%; not below it gives Y, below it gives N.

Req: Quick check: does O=S(=O)([O-])CCCC[n+]1ccc(-c2ncccn2)cn1 have pest or weed control at 500 g/ha greater than or equal to 30%?
Resp: N

Req: Determine whether this compound has pest or weed control at 500 g/ha no lower than 30%: N[C@H](CC[n+]1ccc(-c2ccncn2)cn1)C(=O)O
Resp: N

Req: Hi team, for CCOP(=O)(O)CCC[n+]1ccc(-c2ncccn2)cn1 , is the recorded pest or weed control at 500 g/ha at or above 30%?
Resp: N

Req: Hello, I need to know if CC(C)(C[n+]1ccc(-c2ccncn2)cn1)C(=O)O has measured pest or weed control at 500 g/ha not below 30%. Thanks!
Resp: Y

Req: Confirm if pest or weed control at 500 g/ha reported for the compound CC(CS(=O)(=O)[O-])[n+]1ccc(-c2ncccn2)cn1 (centres unmarked) is 30% or above.
Resp: Y

Req: API: above_or_equal(metric=pest or weed control at 500 g/ha, cutoff=30%) for item Cc1cnc(-c2cc[n+](CCC(=O)O)nc2)c(C)c1
Resp: N

Req: Record Cc1cnc(-c2cc[n+](CCC(=O)O)nc2)c(F)c1 ; criterion: pest or weed control at 500 g/ha no lower than 30%. Met?
Resp: N

Req: Please indicate if the recorded pest or weed control at 500 g/ha for CC(CC(=O)O)[n+]1ccc(-c2ccncn2)cn1 (centres unmarked) meets or exceeds 30%.
Resp: N

Req: Quick check: does Cc1ccc(-c2cc[n+](CCS(=O)(=O)[O-])nc2)nc1 have pest or weed control at 500 g/ha greater than or equal to 30%?
Resp: Y

Req: # check: pest or weed control at 500 g/ha of O=C(O)CC[n+]1ccc(-c2ncc(Cl)c(=O)[nH]2)cn1 [Compound A161, 2,2,2-trifluoroacetate] is greater than or equal to 30%
Resp: N

Req: Determine whether this compound has pest or weed control at 500 g/ha no lower than 30%: OCC[n+]1ccc(-c2ncccn2)cn1 [Compound A195, 2,2,2-trifluoroacetate]
Resp: N

Req: Given O=S(=O)([O-])CC[n+]1ccc(-c2ccnc(C(F)(F)F)c2)cn1 , state whether its pest or weed control at 500 g/ha is at least 30%.
Resp: Y

Req: # check: pest or weed control at 500 g/ha of O=S(=O)([O-])CC[n+]1ccc(-c2ncc(CO)cn2)cn1 is greater than or equal to 30%
Resp: Y
